test system: Sonic hedgehog protein (Shh); assay: small-molecule binders of Shh protein, primary screen, biochemical, small-molecule microarray, 635/667 nm fluorescence (AID 1151); details: small-molecule microarray binding, 635 nm fluorescence; higher = more signal;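 further: Shh protein binding to compounds spotted on small-molecule microarray slides; score combines spot fluorescence intensity with signal-to-noise across triplicate slides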
Observation Type: composite z-score
Simply state the number, no unit and no words.

Some solved entries appear below for comparison.
Compound	composite z-score
COC(=O)[C@@]1(Cc2ccc(OC)cc2)[C@H]2c3cc(C(=O)N(C)C)n(Cc4ccc(Cl)c(C(F)(F)F)c4)c3C[C@H]2CN1C(=O)c1ccccc1	-0.988
C[N+](C)(C)CCCCCCNC(=O)[C@H]1C[C@H]2C(=O)NCC(=O)N2[C@H]1c1ccc(O)cc1	2.09
COCCOC(=O)N1C(=O)[C@@]2(c3cc(C#CCC(C(=O)OC)C(=O)OC)ccc31)[C@H](C(=O)N1CCc3cc(OC)c(OC)cc3C1)[C@H]1C(=O)O[C@H](c3ccccc3)[C@H](c3ccccc3)N1[C@@H]2c1ccc(OCCO)cc1	1.73
CCOC(=O)C1=CC[C@@H](c2ccc(OCc3ccccc3)c(OC)c2)N(S(=O)(=O)c2ccc(C)cc2)[C@H]1c1ccc(SC)cc1	0.249

Inquiry: Enter reported composite z-score observed with Sonic hedgehog protein (Shh) for COCCOC(=O)N1C(=O)[C@@]2(c3cc(C#CC4=CCCCC4)ccc31)[C@H](c1ccc(OCCO)cc1)N1[C@H](c3ccccc3)[C@H](c3ccccc3)OC(=O)[C@H]1[C@@H]2C(=O)N1CCN(c2ncccn2)CC1
Reply text: 0.772

Inquiry: O=C1NC(=O)C2C1C=CC(C(O)c1cccc3ccccc13)N2Nc1ccc(Cl)cc1Cl (stereo unspecified) ?
Reply text: -0.325

---

test system: Sam68 (KHDRBS1); experiment: Sam68 small-molecule binders, primary screen, biochemical, small-molecule microarray, 635 nm fluorescence (AID 1125); conditions: small-molecule microarray binding, higher = more signal;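 further: score merges 667 nm channel intensity with signal to noise over triplicate slides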
Item-by-item account of composite z-score
Simply state the number, no unit and no words.

Item Smiles	System Under Test	composite z-score
O=C(NCc1ccccc1)[C@@H]1c2ccccc2C(=O)N(Cc2ccccc2C(F)(F)F)[C@H]1c1ccc(CO)cc1	Sam68 (KHDRBS1)	0.227
CCOC(=O)C[C@H]1[C@H](OC(=O)c2ccc(C(=O)c3ccccc3)cc2)[C@@H](NC(=O)Cc2ccc(OC)cc2)c2cc(OCCCO)ccc2N1C(=O)c1ccccc1	Sam68 (KHDRBS1)	0.428
CC1=C[C@@]2(CO)C(=O)[C@]3(CO3)[C@@H]1[C@H]1[C@]2(C)C=C(CO)C(=O)[C@]12CO2	Sam68 (KHDRBS1)	0.369

Consider the additional compound presented here.
Inquiry: Please report the recorded composite z-score for Cc1ccc(S[C@]2(C(=O)O)CC(=O)N(Cc3ccccc3Cl)[C@@H]2c2ccc(CO)cc2I)cc1 .
Reply text: 0.409

---

experiment: S. cerevisiae RM11-1a growth modifiers, primary screen, strain RM11-1a, OD600, basal, 24 h (AID 1177); conditions: OD600, 24 h, higher = more signal, called active from +8 up or from −8 down;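 further: cultures grown under basal conditions with no added stressor; test concentration not given here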
Record class 1 whenever z-score is at 0.8 or higher; record class 0 when lower.

Some solved entries appear below for comparison.
Compound	Category Label
C=CC[C@@]1(C(=O)N2CCOCC2)N=C(c2ccc(OCCCO)cc2)O[C@@H]1c1ccccc1CN=[N+]=[N-]	class 0
COc1ccc([Si](C)(C)[C@@H]2[C@@H](CC(=O)N(CCO)Cc3ccccc3)O[C@]3(C(=O)N(Cc4cccc(N5CCOC5=O)c4)c4ccccc43)[C@H]2C)cc1	class 1
CC(C)(C)N1CC=CC23O[C@@H]4C=CCCOC(=O)C4[C@H]2C(=O)N(CCO)[C@@H]3C1=O (some centres undefined)	class 0

Inquiry: Say whether CCCNC(=O)[C@@]1(c2ccc([N+](=O)[O-])cc2)CC(=O)N(C2CCCCC2)[C@@H]1c1ccc(CO)cc1 shows z-score of 0.8 or more.
Reply text: class 1

Inquiry: C=CC[C@]1(C(=O)NCCN2CCOCC2)N=C(c2ccc(OCCCO)cc2)O[C@H]1c1ccccc1CN=[N+]=[N-] ?
Reply text: class 0

Inquiry: O=C1NC(=O)C2C1C=CC(C(O)c1cccc3ccccc13)N2Nc1ccc(Cl)cc1Cl (centres undefined) ?
Reply text: class 1

Inquiry: COC(=O)c1c(CC[C@@H](CO)NC(=O)N[C@H](Cn2cc(C3(O)CCCCC3)nn2)C(C)C)oc(C(C)=O)c1C(=O)OC ?
Reply text: class 0

Inquiry: COCCOC(=O)N1C(=O)[C@@]2(c3cc(C#CC4=CCCCC4)ccc31)[C@H](c1ccc(OCCO)cc1)N1[C@H](c3ccccc3)[C@H](c3ccccc3)OC(=O)[C@H]1[C@@H]2C(=O)N1CCN(c2ncccn2)CC1 ?
Reply text: class 1

Inquiry: C=CCN1Cc2ccccc2[C@H]2OC(c3ccc(OCCCO)cc3)=N[C@@]2(CC=C)C1=O ?
Reply text: class 1

Inquiry: C=C(/C(=C/C[C@H](OC(=O)c1ccncc1)c1ccc(CO)o1)c1cc(C(=O)OC)ccc1OC)C(C)C ?
Reply text: class 0

Inquiry: CC(C)OC(=O)C=C1C[C@@H](c2ccc(C(F)(F)F)cc2)O[C@@H](c2ccc(C(F)(F)F)cc2)O1 ?
Reply text: class 0

Inquiry: C=CC[C@]1(C(=O)O)COC(c2ccc(OCCCO)cc2)=N1 ?
Reply text: class 0

Inquiry: COCCOC(=O)N1C(=O)[C@@]2(c3cc(C#CCCO)ccc31)[C@H](c1ccccc1OCCO)N1[C@H](c3ccccc3)[C@H](c3ccccc3)OC(=O)[C@H]1[C@@H]2C(=O)Nc1nc2ccccc2s1 ?
Reply text: class 1

---

test: anti-His antibody binders, primary screen, artefact control for SMM control protein annotation, biochemical, small-molecule microarray, 635 nm fluorescence (AID 1128); settings: anti-His Alexa647 antibody binding, higher = more signal;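 further: score merges feature fluorescence with signal-to-noise for each printed compound spot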
Observation Type: composite z-score
Simply state the number, no unit and no words.

Inquiry: Please report the recorded composite z-score for CN1C(=O)C2C=CC(C(O)COCc3ccccc3)N(N(c3ccccc3)c3ccccc3)C2C1=O (stereo not given) .
Reply text: 0.087

Inquiry: C=C(/C(=C/C[C@H](OC(=O)c1ccncc1)c1ccc(CO)o1)c1cc(C(=O)OC)ccc1OC)C(C)C ?
Reply text: 2

Inquiry: C=C[C@@H](COC(C)=O)N(C(=O)OC(C)(C)C)S(=O)(=O)c1ccc(Br)cc1 ?
Reply text: 1.5

Inquiry: OCC1CC(c2ccccc2)=NO1 (stereo not given) ?
Reply text: 0.702

Inquiry: C=C(COC)/C(=C/C[C@H](OC(C)=O)c1ccc(OCCO)cc1)c1cc(C(=O)OC)ccc1OC ?
Reply text: 0.544

Inquiry: COc1ccc(-c2nc(-c3ccccc3)c3c(c2C)CO[Si]3(C(C)C)C(C)C)cn1 ?
Reply text: -0.479

Inquiry: CC(C)(C)N1CC=CC23O[C@@H]4C=CCCOC(=O)C4[C@H]2C(=O)N(CCO)[C@@H]3C1=O (stereo not given in full) ?
Reply text: -0.513

Inquiry: C=CCC(OC(C)=O)[C@@H]1[C@@H](N(Cc2cccc3ccccc23)C(=O)c2cccc3ccccc23)c2cc(OCCCO)ccc2N1C(=O)c1ccc(-c2ccccc2)cc1 (stereo not given in full) ?
Reply text: -0.123

Inquiry: O=C(CS)NCCCCCCNC(=O)[C@H]1C[C@H]2C(=O)N[C@@H](Cc3ccccc3)C(=O)N2[C@H]1c1ccc(O)cc1 ?
Reply text: 1.29

Inquiry: COC(=O)[C@@]1(Cc2ccc(F)cc2)[C@H]2c3cc(C(=O)N4CCCC4)n(CCc4ccc(O)c(O)c4)c3C[C@H]2CN1C(=O)c1ccccc1 ?
Reply text: -0.371

Inquiry: COCCOC(=O)N1C(=O)[C@@]2(c3cc(C#CCC(C(=O)OC)C(=O)OC)ccc31)[C@H](C(=O)N1CCc3cc(OC)c(OC)cc3C1)[C@H]1C(=O)O[C@H](c3ccccc3)[C@H](c3ccccc3)N1[C@@H]2c1ccc(OCCO)cc1 ?
Reply text: 2.19

Inquiry: CC[C@H]1C2=C3C(CC[C@H]4C(OCc5ccc(F)cc5C(F)(F)F)OC[C@](C)([C@@H]34)N(C(=O)OC(C)(C)C)C2)C(COC)C1COC (stereo not given in full) ?
Reply text: -0.0372

Inquiry: [N-]=[N+]=NCc1ccccc1[C@H]1OC(c2ccc(OCCCO)cc2)=N[C@@]1(CCS(=O)(=O)c1ccccc1)C(=O)NCC(O)CO (stereo not given in full) ?
Reply text: 2.5

Inquiry: COc1cc2c(cc1O)C(C)N(Cc1ccc([N+](=O)[O-])o1)CC2 (stereo not given) ?
Reply text: 1.63

Inquiry: CN(C)c1ccc(C(O)C2C=CC3C(=O)N(c4ccccc4)C(=O)C3N2Nc2ccc([N+](=O)[O-])cc2)cc1 (stereo not given) ?
Reply text: 1.35

---

biological target: Torsin-1A-interacting protein 2 (Homo sapiens); assay: LULL1 binders on small-molecule microarray, primary screen, cell lysate, human LULL1 lysate, 635/667 nm fluorescence (AID 1092); conditions: hLULL1 lysate binding, 635 nm fluorescence, higher = more signal;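 further: probe is lysate of COS7 cells overexpressing human LULL1; score merges per-feature 667 nm fluorescence with signal-to-noise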
Item-by-item account of composite z-score

Some solved entries appear below for comparison.
Compound	composite z-score
C=CCOC(=O)[C@H]1[C@@H]2C(=O)O[C@@H](c3ccccc3)[C@@H](c3ccccc3)N2[C@@H](c2ccc(OCCOC(=O)[C@@H]3C[C@@H]4C(=O)N[C@@H](CCCCN(C)C)C(=O)N4[C@@H]3c3ccc(O)cc3)cc2)[C@]12C(=O)Nc1ccccc12	2.57
COCCCNC(=O)[C@@]1(Cc2ccccc2N=[N+]=[N-])COC(c2ccc(OCCCO)cc2)=N1	3.13
COC(=O)c1c2oc(c1C(=O)OC)C(=O)N(Cc1ccccc1)Cc1cn(nn1)C[C@H](Cc1ccccc1)NC(=O)N[C@H](CO)CC2	1.69
CN(C)C(=O)[C@@]1(CCS(=O)(=O)c2ccccc2)N=C(c2ccc(OCCCO)cc2)O[C@H]1c1ccccc1	3.51
CCCCO[C@H]1C[C@H]2C(I)=C[C@@H]1C(=O)[C@]21CO1	-1.03
COC(=O)[C@@]1(Cc2ccc(OC)cc2)[C@H]2c3cc(C(=O)N4CCCC4)n(Cc4cccc5ccccc45)c3C[C@H]2CN1C(=O)c1ccccc1	3.02

Inquiry: Please report the recorded composite z-score for C=CCNC(=O)[C@H]1[C@@H]2C(=O)O[C@@H](c3ccccc3)[C@@H](c3ccccc3)N2[C@@H](c2ccc(O)cc2)[C@]12C(=O)Nc1ccc(C#CC3(O)CCCCCC3)cc12 .
Reply text: 3.03

Inquiry: O=C1O[C@H](c2ccccc2)[C@H](c2ccccc2)N2[C@H]1[C@@H](C(=O)Nc1nc3ccccc3s1)[C@]1(C(=O)Nc3ccc(C#CCCO)cc31)[C@H]2c1ccc(O)cc1 ?
Reply text: 2.39

Inquiry: CN1C(=O)C2C=CC(C(O)COCc3ccccc3)N(N(c3ccccc3)c3ccccc3)C2C1=O (centres undefined) ?
Reply text: 2.11

Inquiry: C=C(COC)C(=O)CC[C@@H](OC(=O)c1cccnc1)c1ccc(OCCO)cc1 ?
Reply text: 0.204

Inquiry: [N-]=[N+]=Nc1ccccc1[C@H]1OC(c2ccc(OCCCO)cc2)=N[C@@]1(Cc1ccccc1)C(=O)N1CCCCC1 ?
Reply text: 3.29

Inquiry: Cc1ccccc1C(O)C1C=CC2C(=O)N(C)C(=O)C2N1N(c1ccccc1)c1ccccc1 (centres undefined) ?
Reply text: -0.604

Inquiry: COc1ccc([Si](C)(C)[C@@H]2[C@@H](CC(=O)N3Cc4ccccc4C[C@H]3CO)O[C@]3(C(=O)N(Cc4cccc(N5C(=O)c6cccc7cccc5c67)c4)c4ccccc43)[C@H]2C)cc1 ?
Reply text: 1.6

Inquiry: C=CC1c2cc(O)c(OC)cc2CCN1Cc1cc2c(cc1Br)OCO2 (centres undefined) ?
Reply text: 2.51

Inquiry: CN1C(=O)C2C=CC(C(O)C#Cc3ccccc3)N(Nc3ccccc3)C2C1=O (centres undefined) ?
Reply text: 3.4

Inquiry: C=C[C@@H](OC)[C@H](OC(=O)Nc1ccc(SC)cc1)c1ccc(O)c(F)c1 ?
Reply text: 2.58

Inquiry: C=CC[C@]1(C(=O)O)COC(c2ccc(OCCCO)cc2)=N1 ?
Reply text: 3.36

Inquiry: CCCCC=C[C@@H](NC(=O)c1ccc(-c2ccccc2)cc1)c1ccccc1 ?
Reply text: 2.44

Inquiry: O=c1n(-c2ccccc2)c(=O)n2n1CC(COc1ccccc1)=C([C@H](O)CCc1ccccc1)[C@@H]2CO ?
Reply text: -0.173

Inquiry: C=C(COC)/C(=C/C[C@H](OC(C)=O)c1ccc(OCCO)cc1)c1cc(C(=O)OC)ccc1OC ?
Reply text: 0.914

Inquiry: COCCOC(=O)N1C(=O)[C@@]2(c3cc(C#Cc4ccc(OC)cc4)ccc31)[C@H](C(=O)Nc1nc3ccccc3s1)[C@H]1C(=O)O[C@H](c3ccccc3)[C@H](c3ccccc3)N1[C@@H]2c1ccc(O)cc1 ?
Reply text: 2.74

Inquiry: CC(=O)c1ccc(C(O)C2C=CC3C(=O)N(c4ccccc4)C(=O)C3N2Nc2ccc(C#N)cc2)cc1 (centres undefined) ?
Reply text: 3.76

Inquiry: COC(=O)[C@@]1(Cc2ccc(OC)cc2)[C@H]2c3cc(C(=O)N(C)C)n(C[C@H](O)CO)c3C[C@H]2CN1C(=O)c1ccccc1 ?
Reply text: 2.92

Inquiry: O=C1O[C@H](c2ccccc2)[C@H](c2ccccc2)N2[C@H]1[C@@H](C(=O)N1CCN(c3ncccn3)CC1)[C@]1(C(=O)Nc3ccc(C#CC4(O)CCCCCC4)cc31)[C@H]2c1ccc(OCCO)cc1 ?
Reply text: 3.79

Inquiry: CC1=C[C@@]2(CO)C(=O)[C@]3(CO3)[C@@H]1[C@H]1[C@]2(C)C=C(CO)C(=O)[C@]12CO2 ?
Reply text: 0.0091

Inquiry: C=CCN1C(=O)[C@@]2(CCS(=O)(=O)c3ccccc3)N=C(c3ccc(OCCCO)cc3)O[C@H]2c2ccccc21 ?
Reply text: 2.88

Inquiry: O=C(NCC(F)(F)F)[C@@H]1c2ccccc2C(=O)N(Cc2ccccc2C(F)(F)F)[C@H]1c1ccc(CO)cc1 ?
Reply text: 1.28

Inquiry: CC(C)N1C(=O)C[C@@](C(=O)NCCCN(C)C)(c2ccc([N+](=O)[O-])cc2)[C@H]1c1ccc(CO)cc1 ?
Reply text: 0.349

Inquiry: CCOC(=O)C[C@H]1[C@H](OC(=O)c2ccccc2-c2ccccc2)[C@@H](NC(=O)C2CCCCC2)c2cc(OCCCO)ccc2N1C(=O)Cc1ccc(OC)cc1 ?
Reply text: 0.735

Hey, just so you know, these numbers are from PubChem BioAssay.
